target: recombinant rat α2β3γ2F77I receptors (Rattus norvegicus, UniProt P18508+P23576, F115I); test: Two-electrode voltage clamp of GABA-induced chloride currents in Xenopus oocytes; format: cell-based; details: 10 nM; α2β3γ2F77I; ns = not significant
Sequence (P23576 29-451): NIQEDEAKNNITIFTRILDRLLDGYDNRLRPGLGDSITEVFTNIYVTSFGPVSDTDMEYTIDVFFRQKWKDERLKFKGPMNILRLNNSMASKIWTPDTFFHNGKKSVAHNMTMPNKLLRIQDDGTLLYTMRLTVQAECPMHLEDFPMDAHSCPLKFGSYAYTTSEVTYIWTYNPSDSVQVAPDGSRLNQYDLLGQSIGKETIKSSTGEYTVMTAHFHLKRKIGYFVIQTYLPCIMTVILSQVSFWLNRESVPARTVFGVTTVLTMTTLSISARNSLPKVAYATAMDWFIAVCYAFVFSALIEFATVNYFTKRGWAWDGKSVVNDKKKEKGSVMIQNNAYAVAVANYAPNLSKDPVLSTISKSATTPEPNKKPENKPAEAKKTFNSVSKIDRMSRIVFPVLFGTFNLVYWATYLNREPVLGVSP
Sequence (P63079 26-473 partner): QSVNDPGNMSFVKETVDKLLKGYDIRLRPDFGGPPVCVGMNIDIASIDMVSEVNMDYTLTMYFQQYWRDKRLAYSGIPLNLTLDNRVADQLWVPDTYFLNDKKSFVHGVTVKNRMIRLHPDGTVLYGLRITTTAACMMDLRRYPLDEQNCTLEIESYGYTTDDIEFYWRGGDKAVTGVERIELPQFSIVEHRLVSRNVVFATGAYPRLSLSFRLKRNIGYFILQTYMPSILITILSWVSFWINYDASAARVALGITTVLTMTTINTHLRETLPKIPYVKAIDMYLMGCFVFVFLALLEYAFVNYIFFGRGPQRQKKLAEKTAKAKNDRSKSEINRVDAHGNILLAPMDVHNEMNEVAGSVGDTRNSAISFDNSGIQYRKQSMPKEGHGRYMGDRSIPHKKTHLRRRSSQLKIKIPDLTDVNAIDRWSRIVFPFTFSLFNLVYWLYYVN
Sequence (P18508 39-466 F115I): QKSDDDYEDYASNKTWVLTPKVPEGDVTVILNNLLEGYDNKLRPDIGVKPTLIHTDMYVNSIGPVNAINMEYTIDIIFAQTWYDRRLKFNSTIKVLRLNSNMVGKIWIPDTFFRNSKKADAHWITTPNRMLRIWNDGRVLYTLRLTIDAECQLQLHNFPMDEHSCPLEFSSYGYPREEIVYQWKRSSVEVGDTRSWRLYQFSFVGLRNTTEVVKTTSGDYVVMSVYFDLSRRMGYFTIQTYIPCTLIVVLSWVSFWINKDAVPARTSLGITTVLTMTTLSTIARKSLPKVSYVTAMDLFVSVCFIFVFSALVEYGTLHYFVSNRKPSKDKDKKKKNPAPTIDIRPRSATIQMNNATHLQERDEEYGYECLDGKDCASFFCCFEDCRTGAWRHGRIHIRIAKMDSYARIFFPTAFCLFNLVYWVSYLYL
experimental.endpoint: efficacy (% GABA EC3)

| compound | experimental.endpoint | result |
| --- | --- | --- |
| CCOC(=O)c1ncn2c1C1CCCN1C(=O)c1cc(OC)ccc1-2 (centres unmarked) | efficacy (% GABA EC3) | ns |
| COCc1c(C(=O)OC(C)C)ncc2[nH]c3ccc(OCc4ccccc4)cc3c12 | efficacy (% GABA EC3) | ns |
| CCc1c(C(=O)OC)ncc2[nH]c3cc(OC)c(OC)cc3c12 | efficacy (% GABA EC3) | 103 ± 1 % GABA EC3 |
| CC(C)(C)OC(=O)c1ncn2c1[C@@H]1CCCN1C(=O)c1c(Br)cccc1-2 | efficacy (% GABA EC3) | ns |
| CCOC(=O)c1ncn2c1CN(C)C(=O)c1cc(F)ccc1-2 | efficacy (% GABA EC3) | ns |

---

target: recombinant rat α2β3γ2F77I receptors (Rattus norvegicus, UniProt P18508+P23576, F115I); assay: Two-electrode voltage clamp of GABA-induced chloride currents in Xenopus oocytes; assay type: cell-based; details: 10 μM; α2β3γ2F77I; ns = not significant

| compound | efficacy (% GABA EC3) |
| --- | --- |
| Cc1nnc2ccc(-c3cccc(C(F)(F)F)c3)nn12 [CL 218872] | ns |
| CCOC(=O)c1ncn2c1CN(C)C(=O)c1cc(F)ccc1-2 [Ro15–1788] | ns |
| CCc1c(C(=O)OC)ncc2[nH]c3cc(OC)c(OC)cc3c12 [DMCM] | 283 ± 17 % GABA EC3 |

---

target: recombinant rat α1β3γ2 receptors (Rattus norvegicus, UniProt P18508+P62813); assay: Two-electrode voltage clamp of GABA-induced chloride currents in Xenopus oocytes; type: cell-based; settings: 100 nM; α1β3γ2; ns = not significant
Sequence (P62813 28-455, one chain of several): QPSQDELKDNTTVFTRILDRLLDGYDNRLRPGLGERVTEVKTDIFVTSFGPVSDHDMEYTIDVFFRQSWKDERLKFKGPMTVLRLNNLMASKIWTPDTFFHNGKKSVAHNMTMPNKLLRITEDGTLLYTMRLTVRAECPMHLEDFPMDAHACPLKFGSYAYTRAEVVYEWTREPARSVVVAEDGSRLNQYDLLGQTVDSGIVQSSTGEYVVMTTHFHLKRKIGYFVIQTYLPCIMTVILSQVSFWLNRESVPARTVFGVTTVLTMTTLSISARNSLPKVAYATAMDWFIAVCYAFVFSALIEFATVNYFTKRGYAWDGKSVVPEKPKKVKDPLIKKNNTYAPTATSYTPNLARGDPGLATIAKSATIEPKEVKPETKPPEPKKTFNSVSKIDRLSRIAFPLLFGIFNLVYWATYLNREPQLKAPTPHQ
Sequence (P18508 39-466, one chain of several): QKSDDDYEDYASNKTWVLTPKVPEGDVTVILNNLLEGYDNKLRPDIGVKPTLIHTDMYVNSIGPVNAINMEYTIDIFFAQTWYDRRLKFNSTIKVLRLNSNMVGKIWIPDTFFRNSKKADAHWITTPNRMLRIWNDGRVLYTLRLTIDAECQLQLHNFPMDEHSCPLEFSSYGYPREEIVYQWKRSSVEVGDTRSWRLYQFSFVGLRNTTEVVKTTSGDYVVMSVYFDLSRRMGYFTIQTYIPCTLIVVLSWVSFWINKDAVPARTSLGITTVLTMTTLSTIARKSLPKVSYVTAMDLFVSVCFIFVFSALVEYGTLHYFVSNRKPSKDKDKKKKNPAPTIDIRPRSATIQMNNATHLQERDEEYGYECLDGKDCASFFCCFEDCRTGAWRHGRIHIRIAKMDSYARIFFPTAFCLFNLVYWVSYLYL

| compound | efficacy (% GABA EC3) |
| --- | --- |
| CN1CCN(C(=O)OC2c3nccnc3C(=O)N2c2ccc(Cl)cn2)CC1 (centres unmarked) | 211 |
| CCc1c(C(=O)OC)ncc2[nH]c3cc(OC)c(OC)cc3c12 | 79 |
| CN1C(=O)CN=C(c2ccccc2)c2cc(Cl)ccc21 | 239 |
| Cc1nnc2ccc(-c3cccc(C(F)(F)F)c3)nn12 | 119 |
| CC(C)(C)OC(=O)c1ncn2c1[C@@H]1CCCN1C(=O)c1c(Br)cccc1-2 | 134 |

---

Measured efficacy (% GABA EC3), listed per entry.
molecular target: recombinant rat α5β3γ2 receptors (Rattus norvegicus, UniProt P18508+P19969); test: Two-electrode voltage clamp of GABA-induced chloride currents in Xenopus oocytes; format: cell-based; details: 10 μM; α5β3γ2; ns = not significant
Sequence (P19969 32-464 limits assumed, one chain of several): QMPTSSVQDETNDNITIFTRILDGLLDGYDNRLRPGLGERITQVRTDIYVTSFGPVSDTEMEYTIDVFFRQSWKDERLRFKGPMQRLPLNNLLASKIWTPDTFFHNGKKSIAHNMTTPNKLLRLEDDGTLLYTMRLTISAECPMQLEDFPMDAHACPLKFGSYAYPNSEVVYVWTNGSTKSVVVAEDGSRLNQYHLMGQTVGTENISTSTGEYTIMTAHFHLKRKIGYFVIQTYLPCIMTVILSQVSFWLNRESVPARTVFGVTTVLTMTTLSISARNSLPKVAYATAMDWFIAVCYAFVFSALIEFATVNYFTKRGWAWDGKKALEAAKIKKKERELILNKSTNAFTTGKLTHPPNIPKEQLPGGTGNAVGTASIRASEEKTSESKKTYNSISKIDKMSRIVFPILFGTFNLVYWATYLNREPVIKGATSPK
Sequence (P18508 39-466, one chain of several): as the sequence (P18508 39-466, one chain of several) above
experimental.endpoint: efficacy (% GABA EC3)

| molecule | experimental.endpoint | readout.number |
| --- | --- | --- |
| CC(C)(C)OC(=O)c1ncn2c1[C@@H]1CCCN1C(=O)c1c(Br)cccc1-2 | efficacy (% GABA EC3) | 228 |
| CCc1c(C(=O)OC)ncc2[nH]c3cc(OC)c(OC)cc3c12 | efficacy (% GABA EC3) | 145 |
| CN1C(=O)CN=C(c2ccccc2)c2cc(Cl)ccc21 | efficacy (% GABA EC3) | 321 |
| Cc1nnc2ccc(-c3cccc(C(F)(F)F)c3)nn12 | efficacy (% GABA EC3) | 128 |
| CN1CCN(C(=O)OC2c3nccnc3C(=O)N2c2ccc(Cl)cn2)CC1 (stereo not shown) | efficacy (% GABA EC3) | 345 |
